System: HIV-1 tat protein
Experiment: competition filter binding assay, mutant TAR transcripts against labelled HIV-1 TAR RNA (FIG. 7, Table 1)
Conditions: 20 nM TAR RNA, 40 nM tat protein; read-out: D1/2 (concentration of competitor RNA that reduces binding of HIV-1 tat to HIV-1 TAR RNA to 50%)
Listed next: entries and their corresponding IC50.
Report field: quantity (unit follows the number).

Take a look at these entries with their results.
INSERT INTO measurements (substance, result) VALUES
  ('HIV-1 TAR (UUU): full length HIV-1 TAR RNA of 59 residues prepared by transcription, wild type, UUU bulge (GGGUCUCUCUGGUUAGACCAGAUUUGAGCCUGGGAGCUCUCUGGCUAACUAGGGAACCC; unmodified RNA) [reference compound]', '64 nM'),
  ('G28 to C28 ; C37 to G37: pair of TAR point mutations expected to have a normal TAR stem/loop structure (GGGUCUCUCUGGUUAGACCAGAUUUGACCCUGGGAGGUCUCUGGCUAACUAGGGAACCC; chemistry not given here)', '76 nM'),
  ('delta U (bulge): TAR RNA in which residues 23-25 are deleted (GGGUCUCUCUGGUUAGACCAGAGAGCCUGGGAGCUCUCUGGCUAACUAGGGAACCC; RNA, backbone not given here)', '420 nM');

Attention now shifts to the item below.
## Input Looking for the measured IC50 of G to U (loop): TAR RNA in which residues 32-34 are changed to uridine (U) (GGGUCUCUCUGGUUAGACCAGAUUUGAGCCUUUUAGCUCUCUGGCUAACUAGGGAACCC; RNA, backbone not given here) , can you help?
## Output 66 nM
